// provenance: the supplement of paper PMC9112550

Below is a list of entries, each paired with its recorded shrunken log2 fold change value.
- Test system: Escherichia coli TOP10
- procedure.summary: shrunken log2 fold change of peptide-encoding DNA abundance (4.5 h post-induction vs induction); higher = less antimicrobial activity (less host growth inhibition)
- condition.summary: time post-induction: 4.5 h; library: site-saturation at positions 5, 18, 19, 20

[
  {
    "macromolecule.sequence": "RRIRSRPPRLPRPRPRPEANPRP",
    "shrunken log2 fold change": 0.542
  },
  {
    "macromolecule.sequence": "RRIRARPPRLPRPRPRPSGSPRP",
    "shrunken log2 fold change": 0.216
  },
  {
    "macromolecule.sequence": "RRIRGRPPRLPRPRPRPAQNPRP",
    "shrunken log2 fold change": 0.81
  },
  {
    "macromolecule.sequence": "RRIRLRPPRLPRPRPRPDWIPRP",
    "shrunken log2 fold change": -0.0697
  },
  {
    "macromolecule.sequence": "RRIRTRPPRLPRPRPRPPIHPRP",
    "shrunken log2 fold change": -0.323
  },
  {
    "macromolecule.sequence": "RRIRARPPRLPRPRPRPMHDPRP",
    "shrunken log2 fold change": 0.341
  },
  {
    "macromolecule.sequence": "RRIRARPPRLPRPRPRPPSGPRP",
    "shrunken log2 fold change": 0.597
  },
  {
    "macromolecule.sequence": "RRIRARPPRLPRPRPRPGRSPRP",
    "shrunken log2 fold change": 0.206
  },
  {
    "macromolecule.sequence": "RRIRSRPPRLPRPRPRPHALPRP",
    "shrunken log2 fold change": 0.0303
  },
  {
    "macromolecule.sequence": "RRIRQRPPRLPRPRPRPQGMPRP",
    "shrunken log2 fold change": 0.0331
  },
  {
    "macromolecule.sequence": "RRIRQRPPRLPRPRPRPTVGPRP",
    "shrunken log2 fold change": -0.161
  },
  {
    "macromolecule.sequence": "RRIRNRPPRLPRPRPRPDKNPRP",
    "shrunken log2 fold change": -0.226
  },
  {
    "macromolecule.sequence": "RRIRSRPPRLPRPRPRPFSVPRP",
    "shrunken log2 fold change": -0.416
  },
  {
    "macromolecule.sequence": "RRIRFRPPRLPRPRPRPRCYPRP",
    "shrunken log2 fold change": -0.473
  },
  {
    "macromolecule.sequence": "RRIRQRPPRLPRPRPRPPVHPRP",
    "shrunken log2 fold change": 0.164
  }
]

---

- Test system: Escherichia coli TOP10;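 also: peptides expressed intracellularly from a pBAD plasmid library in pooled LB shake-flask culture, induced with 0.3% L-arabinose, DNA abundance read by NGS, three biological replicates, DESeq2 with apeglm shrinkage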
- procedure.summary: shrunken log2 fold change of peptide-encoding DNA abundance (4.5 h post-induction vs induction); higher = less antimicrobial activity (less host growth inhibition)
- condition.summary: time post-induction: 4.5 h; library: site-saturation at positions 5, 18, 19, 20
Decide by shrunken log2 fold change: equal to or exceeding -0.07 means Condition met, less means Condition not met.

[
  {
    "macromolecule.sequence": "RRIRIRPPRLPRPRPRPQTTPRP",
    "measured.on": "Escherichia coli TOP10",
    "group": "Condition not met"
  },
  {
    "macromolecule.sequence": "RRIRMRPPRLPRPRPRPNPGPRP",
    "measured.on": "Escherichia coli TOP10",
    "group": "Condition met"
  },
  {
    "macromolecule.sequence": "RRIRIRPPRLPRPRPRPSQKPRP",
    "measured.on": "Escherichia coli TOP10",
    "group": "Condition not met"
  },
  {
    "macromolecule.sequence": "RRIRYRPPRLPRPRPRPSGLPRP",
    "measured.on": "Escherichia coli TOP10",
    "group": "Condition not met"
  },
  {
    "macromolecule.sequence": "RRIRCRPPRLPRPRPRPPYSPRP",
    "measured.on": "Escherichia coli TOP10",
    "group": "Condition not met"
  },
  {
    "macromolecule.sequence": "RRIRNRPPRLPRPRPRPGDVPRP",
    "measured.on": "Escherichia coli TOP10",
    "group": "Condition not met"
  },
  {
    "macromolecule.sequence": "RRIRFRPPRLPRPRPRPEDDPRP",
    "measured.on": "Escherichia coli TOP10",
    "group": "Condition not met"
  },
  {
    "macromolecule.sequence": "RRIRCRPPRLPRPRPRPMTTPRP",
    "measured.on": "Escherichia coli TOP10",
    "group": "Condition met"
  },
  {
    "macromolecule.sequence": "RRIRPRPPRLPRPRPRPDQIPRP",
    "measured.on": "Escherichia coli TOP10",
    "group": "Condition not met"
  },
  {
    "macromolecule.sequence": "RRIRERPPRLPRPRPRPTWNPRP",
    "measured.on": "Escherichia coli TOP10",
    "group": "Condition not met"
  },
  {
    "macromolecule.sequence": "RRIRHRPPRLPRPRPRPFEEPRP",
    "measured.on": "Escherichia coli TOP10",
    "group": "Condition met"
  },
  {
    "macromolecule.sequence": "RRIRIRPPRLPRPRPRPWKNPRP",
    "measured.on": "Escherichia coli TOP10",
    "group": "Condition not met"
  },
  {
    "macromolecule.sequence": "RRIRFRPPRLPRPRPRPKVFPRP",
    "measured.on": "Escherichia coli TOP10",
    "group": "Condition met"
  },
  {
    "macromolecule.sequence": "RRIRQRPPRLPRPRPRPGKNPRP",
    "measured.on": "Escherichia coli TOP10",
    "group": "Condition not met"
  },
  {
    "macromolecule.sequence": "RRIRDRPPRLPRPRPRPTFNPRP",
    "measured.on": "Escherichia coli TOP10",
    "group": "Condition not met"
  },
  {
    "macromolecule.sequence": "RRIRARPPRLPRPRPRPRKCPRP",
    "measured.on": "Escherichia coli TOP10",
    "group": "Condition met"
  },
  {
    "macromolecule.sequence": "RRIRMRPPRLPRPRPRPVPRPRP",
    "measured.on": "Escherichia coli TOP10",
    "group": "Condition met"
  },
  {
    "macromolecule.sequence": "RRIRPRPPRLPRPRPRPYHDPRP",
    "measured.on": "Escherichia coli TOP10",
    "group": "Condition met"
  },
  {
    "macromolecule.sequence": "RRIRGRPPRLPRPRPRPDSAPRP",
    "measured.on": "Escherichia coli TOP10",
    "group": "Condition met"
  },
  {
    "macromolecule.sequence": "RRIRGRPPRLPRPRPRPNERPRP",
    "measured.on": "Escherichia coli TOP10",
    "group": "Condition met"
  },
  {
    "macromolecule.sequence": "RRIRGRPPRLPRPRPRPFMAPRP",
    "measured.on": "Escherichia coli TOP10",
    "group": "Condition met"
  },
  {
    "macromolecule.sequence": "RRIRFRPPRLPRPRPRPWGAPRP",
    "measured.on": "Escherichia coli TOP10",
    "group": "Condition met"
  },
  {
    "macromolecule.sequence": "RRIRHRPPRLPRPRPRPYSIPRP",
    "measured.on": "Escherichia coli TOP10",
    "group": "Condition met"
  },
  {
    "macromolecule.sequence": "RRIRLRPPRLPRPRPRPNSGPRP",
    "measured.on": "Escherichia coli TOP10",
    "group": "Condition not met"
  },
  {
    "macromolecule.sequence": "RRIRPRPPRLPRPRPRPFESPRP",
    "measured.on": "Escherichia coli TOP10",
    "group": "Condition met"
  },
  {
    "macromolecule.sequence": "RRIRCRPPRLPRPRPRPFILPRP",
    "measured.on": "Escherichia coli TOP10",
    "group": "Condition not met"
  },
  {
    "macromolecule.sequence": "RRIRNRPPRLPRPRPRPRLYPRP",
    "measured.on": "Escherichia coli TOP10",
    "group": "Condition not met"
  },
  {
    "macromolecule.sequence": "RRIRERPPRLPRPRPRPKYNPRP",
    "measured.on": "Escherichia coli TOP10",
    "group": "Condition not met"
  },
  {
    "macromolecule.sequence": "RRIRCRPPRLPRPRPRPRPIPRP",
    "measured.on": "Escherichia coli TOP10",
    "group": "Condition met"
  },
  {
    "macromolecule.sequence": "RRIRARPPRLPRPRPRPNIVPRP",
    "measured.on": "Escherichia coli TOP10",
    "group": "Condition met"
  },
  {
    "macromolecule.sequence": "RRIRKRPPRLPRPRPRPNYIPRP",
    "measured.on": "Escherichia coli TOP10",
    "group": "Condition not met"
  },
  {
    "macromolecule.sequence": "RRIRIRPPRLPRPRPRPEICPRP",
    "measured.on": "Escherichia coli TOP10",
    "group": "Condition met"
  }
]
